- assay.remarks: Metabolic stability in mouse liver microsomes assessed as half life at 1.25 uM preincubated for 5 mins followed by NADPH addition measured upto 120 mins by LC-MS/MS analysis
- Assay type: ADME, Microsome
- protocol.conditions: time < 125 min
Measured half-life at 1.25 µM, listed per entry for reference.
Quick reminder: number only, in min, skip the unit.

// known answers, use as guide
CS(=O)(=O)c1ccc2nc(Cl)n(-c3ccc(Cl)c(NS(=O)(=O)c4ccc5ncsc5c4)c3)c(=O)c2c1 22.8
CS(=O)(=O)c1ccc2nc(Cl)n(-c3ccc(Cl)c(NS(=O)(=O)c4ccccc4C#N)c3)c(=O)c2c1 20.6
CS(=O)(=O)c1ccc2nc(Cl)n(-c3ccc(Cl)c(NS(=O)(=O)c4c(F)cccc4F)c3)c(=O)c2c1 30.1

Fill in: half-life at 1.25 µM of "O=c1c2cc(Cl)ncc2nc(Cl)n1-c1ccc(Cl)c(NS(=O)(=O)c2ccccc2F)c1" is ___
53

Another molecule: "O=c1c2nc(Cl)ccc2nc(Cl)n1-c1ccc(Cl)c(NS(=O)(=O)c2ccccc2F)c1"
39.1

Another molecule: "O=c1c2cc(Cl)cnc2nc(Cl)n1-c1ccc(Cl)c(NS(=O)(=O)c2ccccc2F)c1"
13.9

Another molecule: "N#Cc1ccc2nc(Cl)n(-c3ccc(Cl)c(NS(=O)(=O)c4c(F)cccc4F)c3)c(=O)c2c1"
26.5

---

- assay.remarks: Solubility of compound in phosphate buffer at pH 7.2 to 7.4
- Assay type: physicochemical
Measured solubility, listed per entry for reference.
Quick reminder: number only, in µg/mL, skip the unit.

// known answers, use as guide
CS(=O)(=O)c1ccc2nc(Cl)n(-c3ccc(Cl)c(NS(=O)(=O)c4ccccc4C#N)c3)c(=O)c2c1 34.2
CS(=O)(=O)c1ccc2nc(Cl)n(-c3ccc(Cl)c(NS(=O)(=O)c4c(F)cccc4F)c3)c(=O)c2c1 44.6
O=c1c2ccncc2nc(Cl)n1-c1ccc(Cl)c(NS(=O)(=O)c2c(F)cccc2F)c1 5.7
CS(=O)(=O)c1ccc2nc(Cl)n(-c3ccc(Cl)c(NS(=O)(=O)c4ccc5ncsc5c4)c3)c(=O)c2c1 21.5

API: the following record is the query input.
Fill in: solubility of "N#Cc1ccc2nc(Cl)n(-c3ccc(Cl)c(NS(=O)(=O)c4c(F)cccc4F)c3)c(=O)c2c1" is ___
48.8

---

- assay.remarks: Cmax in C57BL/6 mouse at 20 mg/kg, po by LC-MS/MS analysis
- Assay type: ADME, organism-based
- protocol.conditions: in vivo
value.type: Cmax (ng/mL)
Quick reminder: number only, in ng/mL, skip the unit.

Fill in: Cmax of "CS(=O)(=O)c1ccc2nc(Cl)n(-c3ccc(Cl)c(NS(=O)(=O)c4c(F)cccc4F)c3)c(=O)c2c1" is ___
44.6

---

- assay.remarks: MRT (infinity) in C57BL/6 mouse at 20 mg/kg, po by LC-MS/MS analysis
- Format: ADME, organism-based
- protocol.conditions: in vivo
value.type: MRT inf (h)
Quick reminder: number only, in h, skip the unit.

Fill in: MRT inf of "CS(=O)(=O)c1ccc2nc(Cl)n(-c3ccc(Cl)c(NS(=O)(=O)c4c(F)cccc4F)c3)c(=O)c2c1" is ___
3.22

---

- assay.remarks: Metabolic stability in mouse hepatocytes assessed as half life at 10 uM measured after 120 mins by LC-MS analysis
- Assay type: ADME, cell-based, Hepatocyte
value.type: half-life at 10 µM (min)
Quick reminder: number only, in min, skip the unit.

Fill in: half-life at 10 µM of "O=c1c2ccncc2nc(Cl)n1-c1ccc(Cl)c(NS(=O)(=O)c2ccccc2F)c1" is ___
2.3

---

- measurement.target: Nucleotide-binding oligomerization domain-containing protein 1 (Mus musculus)
- Sequence (whole entry): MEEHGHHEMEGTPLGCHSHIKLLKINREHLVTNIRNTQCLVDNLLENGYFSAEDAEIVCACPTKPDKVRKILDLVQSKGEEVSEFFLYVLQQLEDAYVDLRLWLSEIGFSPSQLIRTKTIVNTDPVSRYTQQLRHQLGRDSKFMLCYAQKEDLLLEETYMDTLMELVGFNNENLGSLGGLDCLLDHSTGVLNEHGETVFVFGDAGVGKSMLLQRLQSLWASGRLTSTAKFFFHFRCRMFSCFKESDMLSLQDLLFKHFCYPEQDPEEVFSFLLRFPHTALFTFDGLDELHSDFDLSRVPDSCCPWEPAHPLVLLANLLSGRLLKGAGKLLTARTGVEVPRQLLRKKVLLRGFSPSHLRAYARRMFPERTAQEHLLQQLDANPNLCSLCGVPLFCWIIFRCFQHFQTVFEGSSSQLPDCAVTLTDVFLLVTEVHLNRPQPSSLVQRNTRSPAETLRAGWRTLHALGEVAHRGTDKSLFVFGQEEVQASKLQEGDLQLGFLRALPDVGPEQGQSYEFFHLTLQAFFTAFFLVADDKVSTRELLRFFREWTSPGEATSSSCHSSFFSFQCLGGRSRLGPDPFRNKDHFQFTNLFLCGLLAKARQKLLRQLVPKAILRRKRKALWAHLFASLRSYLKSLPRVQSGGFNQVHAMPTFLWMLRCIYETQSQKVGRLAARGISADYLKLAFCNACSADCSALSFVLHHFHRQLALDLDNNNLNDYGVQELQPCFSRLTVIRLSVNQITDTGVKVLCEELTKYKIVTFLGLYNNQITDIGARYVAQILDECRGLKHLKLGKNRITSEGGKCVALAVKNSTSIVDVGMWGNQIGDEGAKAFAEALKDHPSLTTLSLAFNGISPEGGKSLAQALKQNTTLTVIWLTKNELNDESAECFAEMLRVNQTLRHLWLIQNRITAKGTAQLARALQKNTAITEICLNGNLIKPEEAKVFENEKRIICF
- assay.remarks: Antagonist activity at mouse NOD1 expressed in HEK-Blue cells assessed as decrease in SEAP secretion at 5 uM incubated for 3 hrs followed by C12-iE-DAP stimulation for 20 hrs by spectrophotometry relative to control
- Type: cell-based
- protocol.conditions: HEK-Blue mNOD1, time 23.0 hrs
Measured inhibition, listed per entry for reference.

// known answers, use as guide
Cc1nc2ccc(Cl)cc2c(=O)n1-c1ccc(Cl)c(S(=O)(=O)Nc2ccccc2F)c1 21.1%
Cc1nc2ccc(Cl)cc2c(=O)n1CCCNS(=O)(=O)c1ccccc1F < 10%
CC(=O)Nc1ccc(Cl)c(NS(=O)(=O)c2ccccc2F)c1 < 10%
Nc1nc2ccc(Cl)cc2c(=O)n1-c1ccc(Cl)c(NS(=O)(=O)c2ccccc2F)c1 27.3%
Cc1nc2ccc(Cl)cc2c(=O)n1-c1ccc(Cl)c(C(=O)N2Cc3ccccc3S2(=O)=O)c1 < 10%

Fill in: inhibition of "O=C(CSc1nc2ccc(Cl)cc2c(=O)n1-c1ccc(Cl)c(NS(=O)(=O)c2ccccc2F)c1)Nc1ccccc1" is ___
< 10%

Another compound: "Cc1nc2ccc(Cl)cc2c(=O)n1-c1ccc(Cl)c(N2Cc3ccccc3S2(=O)=O)c1"
14.5%

Another compound: "O=c1c2cc(Cl)ccc2nc(SCCOc2ccc(F)cc2)n1-c1ccc(Cl)c(NS(=O)(=O)c2ccccc2F)c1"
< 10%

Another compound: "CCOC(=O)c1nc2ccc(Cl)cc2c(=O)n1-c1ccc(Cl)c(NS(=O)(=O)c2ccccc2F)c1"
11.4%

Another compound: "Nc1ccc(Cl)cc1C(=O)Nc1ccc(Cl)c(NS(=O)(=O)c2ccccc2F)c1"
32.9%

Another compound: "Cc1nc2ccc(Cl)cc2c(=O)n1-c1ccc(Cl)c(N)c1"
< 10%

Another compound: "Cc1nc2ccc(Cl)cc2c(=O)n1-c1ccc(Cl)c(NC(=O)c2ccccc2F)c1"
< 10%

Another compound: "Cc1nc2ccc(Cl)cc2c(=O)n1-c1ccc(Cl)c(C(=O)O)c1"
< 10%

Another compound: "CC(C)NC(=O)CSc1nc2ccc(Cl)cc2c(=O)n1-c1ccc(Cl)c(NS(=O)(=O)c2ccccc2F)c1"
< 10%

Another compound: "Cc1nc2ccc(Cl)cc2c(=O)n1NS(=O)(=O)c1ccc(Cl)cc1"
< 10%

---

- assay.remarks: Metabolic stability in human hepatocytes assessed as intrinsic clearance measured per million cells at 10 uM measured after 120 mins by LC-MS analysis
- Assay type: ADME, cell-based, Hepatocyte
- protocol.conditions: read-out: CLH
value.type: hepatocyte CLint at 10 µM (µL/min/1e6 cells)
Quick reminder: number only, in µL/min/1e6 cells, skip the unit.

Fill in: hepatocyte CLint at 10 µM of "O=c1c2ccncc2nc(Cl)n1-c1ccc(Cl)c(NS(=O)(=O)c2ccccc2F)c1" is ___
59.5

---

- measurement.target: Nucleotide-binding oligomerization domain-containing protein 1 (Mus musculus, UniProt Q8BHB0)
- assay.remarks: Antagonist activity at mouse NOD1 expressed in HEK293 cells assessed as decrease in NF-kappaB activation
- Format: cell-based
value.type: IC50 (nM)
Quick reminder: number only, in nM, skip the unit.

Fill in: IC50 of "CS(=O)(=O)c1ccc2nc(Cl)n(-c3ccc(Cl)c(NS(=O)(=O)c4c(F)cccc4F)c3)c(=O)c2c1" is ___
32
